# Tested on: M. tuberculosis H37Rv growth inhibition, 7H9 media
# procedure-text: M. tuberculosis growth inhibition, HTS (AID 449762);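 note: bacterial growth assessed after seven days of incubation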
# measurement-context: measured here: IC90 growth inhibition
Records with an inconclusive call do not appear.
Output met for records whose IC90 is lower than 20 µM, not met for records at or above 20 µM.

In: Is it true that IC90 reported for O=C(CN1CCC(n2nnc3cc(C(F)(F)F)ccc32)CC1)NCc1cccs1 is less than 20 µM?
Out: not met

In: Is it true that IC90 reported for C/C(=N\Nc1ccc(Cl)c(Cl)c1)c1ccc(-n2ccnc2)cc1 is less than 20 µM?
Out: not met

In: Is it true that IC90 reported for COc1ccc(C2Oc3ccccc3C3=C2C(c2cccs2)n2ncnc2N3)cc1 (stereo not given) is less than 20 µM?
Out: not met

In: Is it true that IC90 reported for COC(=O)CSc1ncnc2c1sc1nc3c(cc12)COC(C)(C)C3 is less than 20 µM?
Out: met

In: Is it true that IC90 reported for CCc1ccc(NC(=S)/N=C(\N)Nc2nc(C)c3cc(CC)ccc3n2)cc1 is less than 20 µM?
Out: not met

In: Is it true that IC90 reported for COc1ccc(-c2csc3nc(-c4ccccc4OC)oc(=O)c23)cc1 is less than 20 µM?
Out: not met

In: Is it true that IC90 reported for CN(C)c1nc(NCc2ccccc2)nc(N/N=C/c2ccc3c(c2)OCO3)n1 is less than 20 µM?
Out: not met

In: Is it true that IC90 reported for CO/N=C(\Cn1ncc(N2CCCC2)c(Cl)c1=O)c1ccc(Cl)cc1 is less than 20 µM?
Out: not met

In: Is it true that IC90 reported for Cc1cc(OC(=O)c2cccs2)c2c3c(c(=O)oc2c1)CCCC3 is less than 20 µM?
Out: met

In: Is it true that IC90 reported for COc1ccc(C(C(O)C(=O)c2c[nH]c3ccccc23)N2CCN(c3ccc(OC)cc3)CC2)cc1 (stereo not given) is less than 20 µM?
Out: not met

* * *

# Test system: M. tuberculosis H37Rv growth inhibition, 7H9 media
# procedure-text: M. tuberculosis growth inhibition, HTS (AID 449762);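 note: bacterial growth assessed after seven days of incubation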
# measurement-context: measured here: IC90 growth inhibition
Records with an inconclusive call do not appear.
recorded-metric: IC90

In: What value of IC90 has been recorded for this entry: O=[N+]([O-])c1c(C(Cl)Cl)nn(-c2ccc(Cl)cc2)c1N1CCCCC1
Out: 19.4 µM

In: What value of IC90 has been recorded for this entry: Cc1ccc(C(=O)Nc2ccc3c4c(cccc24)CC3)cc1[N+](=O)[O-]
Out: > 100 µM

In: What value of IC90 has been recorded for this entry: Cc1cc(-c2ccc(Cl)cc2)c2cnn(C(C)C)c2n1
Out: 44.1 µM

In: What value of IC90 has been recorded for this entry: CCOC(=O)CNC(=S)n1cnc(N)n1
Out: 60.6 µM

In: What value of IC90 has been recorded for this entry: Clc1ccc(SCc2cc(N3CCOCC3)nc(-c3ccccn3)n2)cc1
Out: 6.27 µM

In: What value of IC90 has been recorded for this entry: CCOc1ccc(NC(=O)CCc2nnc3ccc(N4CCC(C)CC4)nn23)cc1
Out: 15.3 µM

In: What value of IC90 has been recorded for this entry: CCOC(=O)c1cc(C)nc(Sc2ccc(C)cc2)c1C#N
Out: 11.3 µM

In: What value of IC90 has been recorded for this entry: Cc1c(CCC(=O)NCCCn2ccnc2)c(=O)oc2c(C)c3occ(C(C)(C)C)c3cc12
Out: 36.3 µM

In: What value of IC90 has been recorded for this entry: CCSc1ccc2c(c1)N(CCCN1CCN(C)CC1)c1ccccc1S2
Out: 26.5 µM

In: What value of IC90 has been recorded for this entry: COC(=O)CSc1nnc([C@H](CC(C)C)NC(=O)OC(C)(C)C)o1
Out: 32.9 µM

In: What value of IC90 has been recorded for this entry: CCN(CC)C(=O)[C@H]1CC(CC(=O)NCC23CC4CC(CC(C4)C2)C3)C(=O)N2CCc3c([nH]c4ccccc34)[C@]12C (some centres not stated)
Out: 24.8 µM

In: What value of IC90 has been recorded for this entry: CCn1c(NC(=O)c2nn(C)cc2Br)nc2ccccc21
Out: 12.7 µM

In: What value of IC90 has been recorded for this entry: CC1=CC(=O)C(C(C)C)=C/C1=N/OS(=O)(=O)c1ccccc1
Out: 4.12 µM

In: What value of IC90 has been recorded for this entry: C=CCOc1ccccc1CN(C(=O)CCl)c1ccc2c(c1)OCO2
Out: 2.58 µM

In: What value of IC90 has been recorded for this entry: Fc1nc(F)c(F)c(NCCCNc2c(F)c(F)nc(F)c2F)c1F
Out: > 100 µM

In: What value of IC90 has been recorded for this entry: CCOC(=O)COc1ccc(/C=C2\NC(=S)N(CC)C2=O)cc1
Out: 8.47 µM

In: What value of IC90 has been recorded for this entry: CCOC(=O)C1(CCOc2ccccc2)CCN(Cc2cccc(-n3cccn3)c2)CC1
Out: 28.8 µM

In: What value of IC90 has been recorded for this entry: CN(C)c1ccc(CNC2C3CC4CC(C3)CC2C4)cc1 (configuration not stated)
Out: 13 µM

In: What value of IC90 has been recorded for this entry: CC(C)C1N=C(c2ccc3c(c2)OCO3)CC(c2ccccc2O)N1 (configuration not stated)
Out: 30.4 µM

In: What value of IC90 has been recorded for this entry: CCCc1ccc(C2=Nn3c(nnc3C(C)C)SC2)cc1
Out: 29.7 µM

In: What value of IC90 has been recorded for this entry: O=C(NCc1ccccn1)C(=O)Nc1nc(C23CC4CC(CC(C4)C2)C3)cs1
Out: 5.26 µM

In: What value of IC90 has been recorded for this entry: CCOc1ccc(-c2nn3c(-c4ccccc4)nnc3s2)cc1
Out: > 100 µM

* * *

# System: M. tuberculosis H37Rv growth inhibition, 7H9 media
# procedure-text: M. tuberculosis growth inhibition, HTS (AID 449762);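 note: bacterial growth assessed after seven days of incubation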
# measurement-context: measured here: IC90 growth inhibition
Records with an inconclusive call do not appear.
recorded-metric: log10(IC90) (log10 of the value in µM)
# log10 transformed; quantity=IC90; unit=µM

In: What value of log10(IC90) has been recorded for this entry: CNC[C@H](Cc1cccc2ccccc12)NC[C@H](CCSC)NCC1CCC(C(C)(C)C)CC1 (stereo partly drawn)
Out: 1.38

In: What value of log10(IC90) has been recorded for this entry: O=c1/c(=C\c2ccc(O)cc2)sc2n1C(c1ccccc1)C(c1ccccc1)=NN=2 (stereo not drawn)
Out: 1.94

In: What value of log10(IC90) has been recorded for this entry: CCN(CC)CCOC(=O)c1ccc(N/C=C(/C#N)c2nc(-c3ccc4c(c3)OCO4)cs2)cc1
Out: 1.73

In: What value of log10(IC90) has been recorded for this entry: O=C(CSc1ccc(Cl)cc1)N1CCC(c2nc3ccccc3s2)CC1
Out: 1.97

In: What value of log10(IC90) has been recorded for this entry: CCN1CCN(Cc2ccc(NC(=O)c3ccc(C)c(/C=C/c4cnc(Nc5cc(N6CCNCC6)nc(C)n5)cn4)c3)cc2C(F)(F)F)CC1
Out: 1.76

In: What value of log10(IC90) has been recorded for this entry: CS/C(Nc1cc(Cl)ccc1Cl)=C(/C#N)C(=O)c1ccco1
Out: 1.60

In: What value of log10(IC90) has been recorded for this entry: C[C@@H]1CN([C@H](C)CO)C(=O)c2cc(NC(=O)Nc3ccc(C(F)(F)F)cc3)ccc2O[C@H]1CN(C)S(=O)(=O)c1cccs1
Out: 1.41

In: What value of log10(IC90) has been recorded for this entry: CC(OC(=O)c1cc(Cl)ccc1[N+](=O)[O-])C(=O)NC(C)c1ccc(F)cc1 (stereo not drawn)
Out: 1.41

In: What value of log10(IC90) has been recorded for this entry: CCN(CC)CCCNc1nc2cc(OC)c(OC)cc2c2nc(-c3ccccc3)nn12
Out: 0.78

In: What value of log10(IC90) has been recorded for this entry: O=[N+]([O-])c1ccc(N2CCCCC2)s1
Out: 1.25

In: What value of log10(IC90) has been recorded for this entry: Cc1ccc(C2(c3ccc(C)cc3)CC2C(=O)Nc2ccc([N+](=O)[O-])cc2O)cc1 (stereo not drawn)
Out: 1.43

In: What value of log10(IC90) has been recorded for this entry: CCCCNC(=S)N(C)/N=C/c1ccc2c(c1)OCO2
Out: 1.31

In: What value of log10(IC90) has been recorded for this entry: CCCCn1c(SCc2ncc(-c3ccccc3)o2)nc2cc(S(N)(=O)=O)ccc21
Out: 0.77

In: What value of log10(IC90) has been recorded for this entry: COc1ccc(/C=C2\CCC/C(=C\C=N\N(C)C)C2=O)cc1
Out: 1.21

In: What value of log10(IC90) has been recorded for this entry: C=CCSc1n[nH]c(-c2ccc(OCCCC)cc2)n1
Out: 1.59

In: What value of log10(IC90) has been recorded for this entry: COc1ccc(-c2cc(-c3ccccc3)c(C#N)c(S(C)=O)n2)cc1 (stereo not drawn)
Out: 1.46

In: What value of log10(IC90) has been recorded for this entry: Oc1c(C(c2ccccc2Cl)N2CCCC2)ccc2cccnc12 (stereo not drawn)
Out: 1.49

In: What value of log10(IC90) has been recorded for this entry: Nc1nc(Cl)cc(N2CCC(c3cc(-c4ccc(Cl)cc4Cl)n[nH]3)CC2)n1
Out: 1.41

In: What value of log10(IC90) has been recorded for this entry: CCCCCC(=O)NNC(=S)NC(=O)c1ccc([N+](=O)[O-])cc1
Out: 0.65

In: What value of log10(IC90) has been recorded for this entry: CCOc1ccc(N2C=Nc3ccc(OCC)cc3C2)cc1
Out: 1.95

In: What value of log10(IC90) has been recorded for this entry: Cc1cc(-c2c(C)[nH]n(-c3ccccc3)c2=O)n[nH]1
Out: 1.41

In: What value of log10(IC90) has been recorded for this entry: COc1cc2nc(Nc3ccc(C)c(Cl)c3)nc(N)c2cc1OC
Out: 1.99

In: What value of log10(IC90) has been recorded for this entry: S=c1nc[nH]c2nc[nH]c12
Out: 0.54

In: What value of log10(IC90) has been recorded for this entry: Cc1cc2c(cc1C)/C(=N/NC(=O)c1ccccn1)CCC2
Out: 1.37

In: What value of log10(IC90) has been recorded for this entry: FC(F)(Cl)c1nnc2ccc(Cl)nn12
Out: -0.07

In: What value of log10(IC90) has been recorded for this entry: CCCc1cc(NC(=O)CCl)n(-c2ccccc2)n1
Out: 0.36

In: What value of log10(IC90) has been recorded for this entry: CCCCCCCNC(=O)c1ccc(N2CCC3(CC2)OCCO3)c([N+](=O)[O-])c1
Out: 1.67

In: What value of log10(IC90) has been recorded for this entry: COc1ccccc1C1CC(c2ccc(Cl)cc2)Nc2ncnn21 (stereo not drawn)
Out: 1.25

In: What value of log10(IC90) has been recorded for this entry: CCc1ccc(C2=NN(c3ccc(S(N)(=O)=O)cc3)C(c3ccc(F)cc3)C2)cc1 (stereo not drawn)
Out: 1.69

In: What value of log10(IC90) has been recorded for this entry: Clc1ccc(Nc2ccc(-n3ccnc3)nn2)cc1Cl
Out: 1.40

In: What value of log10(IC90) has been recorded for this entry: COc1cc(N=Nc2ccc3ccccc3c2)ccc1O
Out: 1.80

In: What value of log10(IC90) has been recorded for this entry: CCOc1ccc2nc(NC(=O)C34CC5CC(CC(NC(C)=O)(C5)C3)C4)sc2c1
Out: 1.45

In: What value of log10(IC90) has been recorded for this entry: Cc1oc(-c2cccc(Cl)c2)nc1CN1CCC(C(=O)N2CCN(c3ccccc3F)CC2)CC1
Out: 1.42

In: What value of log10(IC90) has been recorded for this entry: CC1CCCC/C1=N\NC(=S)NCCc1ccccc1 (stereo not drawn)
Out: 1.39

In: What value of log10(IC90) has been recorded for this entry: CCOC(=O)c1cc(-c2csc(Nc3c(C)cc(C)cc3C)n2)on1
Out: 0.25

In: What value of log10(IC90) has been recorded for this entry: Cc1ccc(-c2csc3ncnc(Nc4ccc(N5CCOCC5)cc4)c23)cc1
Out: 1.70

In: What value of log10(IC90) has been recorded for this entry: COc1ccccc1C1CCN(Cc2ccc3ccccc3c2)CC1
Out: 1.34
